- ASSAY TARGET: native aldolase from rabbit muscle (RM) (Oryctolagus cuniculus)
- Construct: made in house
- Sequence (P00883 whole entry): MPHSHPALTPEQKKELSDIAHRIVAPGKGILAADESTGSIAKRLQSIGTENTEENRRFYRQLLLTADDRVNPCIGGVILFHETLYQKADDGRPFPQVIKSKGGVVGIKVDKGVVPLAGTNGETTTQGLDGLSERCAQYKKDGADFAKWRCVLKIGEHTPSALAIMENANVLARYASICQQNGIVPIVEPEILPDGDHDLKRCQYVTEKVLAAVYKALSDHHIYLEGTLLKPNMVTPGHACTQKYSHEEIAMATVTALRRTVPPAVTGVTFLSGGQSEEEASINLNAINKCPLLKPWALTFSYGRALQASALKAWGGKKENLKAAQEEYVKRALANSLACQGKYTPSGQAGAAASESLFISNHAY
- PROCEDURE DETAILS: Aldolase activity by coupled enzyme test (TIM/GDH), inactivation and reactivation kinetics
- Type: biochemical
- MEASUREMENT CONTEXT: estimated from the values of Table 2; read-out: global dissociation constant Ki*

COMPOUND | Ki / nM
O=Cc1c(O)ccc2cc(OP(=O)(O)O)ccc12 [FHN-P, 5-formyl-6-hydroxy-2-naphthylphosphate] | 40

---

- PROCEDURE DETAILS: Titration of FHN-P by aminocaproic acid, Schiff base model reaction (method B)
- MEASUREMENT CONTEXT: Schiff base, TEA buffer, 25° C; read-out: dissociation constant Kd of FHN-P-aminocaproic acid
QUANTITY KIND: Kd (mM)

MOLECULE | QUANTITY KIND | MEASUREMENT
O=Cc1c(O)ccc2cc(OP(=O)(O)O)ccc12 [FHN-P, 5-formyl-6-hydroxy-2-naphthylphosphate] | Kd | 16

---

- ASSAY TARGET: native aldolase from rabbit muscle (RM) (Oryctolagus cuniculus)
- Construct: made in house
- PROCEDURE DETAILS: Aldolase activity by coupled enzyme test (TIM/GDH), inactivation and reactivation kinetics
- Type: biochemical
- MEASUREMENT CONTEXT: dissociation constant of rapidly formed EI complex; from kapp at 0.01-1.5 mM inhibitor, eqn.(3); read-out: Ki
QUANTITY KIND: Ki (µM)

MOLECULE | MEASUREMENT
O=Cc1c(O)ccc2cc(OP(=O)(O)O)ccc12 [FHN-P, 5-formyl-6-hydroxy-2-naphthylphosphate] | 250

---

- ASSAY TARGET: native (wild-type) rabbit muscle aldolase (Oryctolagus cuniculus, UniProt P00883)
- Construct: made in house
- PROCEDURE DETAILS: UV-visible differential spectroscopy (method A) of aldolase-inhibitor complex formation
- Format: binding
- MEASUREMENT CONTEXT: EI complex; UV-visible differential spectroscopy, FHN-P 0.1-1 mM, aldolase 10 μM subunits, 25° C; read-out: Ki

COMPOUND | ASSAY TARGET | Ki (µM)
O=Cc1c(O)ccc2cc(OP(=O)(O)O)ccc12 [FHN-P, 5-formyl-6-hydroxy-2-naphthylphosphate] | native (wild-type) rabbit muscle aldolase (Oryctolagus cuniculus, UniProt P00883) | 125
